Experiment: Approximate solubility of Form A in solvents at room temperature
Format: physicochemical
Details: organic solvent or mixture, thermodynamic from solid, 2-MeTHF
MEASUREMENT_LABEL: solubility

Would you kindly share the measured solubility for C[C@@H](COCCC(=O)N1CCN(c2ncc(C(F)(F)F)cn2)CC1)Nc1cn[nH]c(=O)c1C(F)(F)F [Form A] ? < 1000 µg/mL

###

Experiment: Approximate solubility of Form A in solvents at room temperature
Assay type: physicochemical
Conditions: organic solvent or mixture, thermodynamic from solid, Acetone/n-Heptane (1:4) v:v
MEASUREMENT_LABEL: solubility

Name the reported solubility value associated with the molecule C[C@@H](COCCC(=O)N1CCN(c2ncc(C(F)(F)F)cn2)CC1)Nc1cn[nH]c(=O)c1C(F)(F)F [Form A] < 1300 µg/mL

###

Assay: Approximate solubility of Form A in solvents at room temperature
Type: physicochemical
Conditions: organic solvent or mixture, thermodynamic from solid, Acetone/n-Heptane (1:9) v:v
MEASUREMENT_LABEL: solubility

Name the reported solubility value associated with the compound C[C@@H](COCCC(=O)N1CCN(c2ncc(C(F)(F)F)cn2)CC1)Nc1cn[nH]c(=O)c1C(F)(F)F [Form A] < 1000 µg/mL

###

Experiment: Approximate solubility of Form A in solvents at room temperature
Type: physicochemical
Details: water, thermodynamic from solid, H2O
Method: The approximate solubility of Form A was estimated in 27 solvents or co-solvents at room temperature. Approximately 2 mg of solids were weighed into each 3 mL glass vial, to which each of the solvents was added in stepwise until the solids dissolved completely or the total volume reaches 2.0 mL. Solubility ranges were used to guide the solvent selection for polymorph screening described in later examples.
MEASUREMENT_LABEL: solubility

Fill blank: measured solubility of the compound C[C@@H](COCCC(=O)N1CCN(c2ncc(C(F)(F)F)cn2)CC1)Nc1cn[nH]c(=O)c1C(F)(F)F [Form A] is ____. < 1100 µg/mL

###

Assay: Approximate solubility of Form A in solvents at room temperature
Format: physicochemical
Conditions: organic solvent or mixture, thermodynamic from solid, NMP
MEASUREMENT_LABEL: solubility

Look up solubility for this compound: C[C@@H](COCCC(=O)N1CCN(c2ncc(C(F)(F)F)cn2)CC1)Nc1cn[nH]c(=O)c1C(F)(F)F [Form A] > 38 mg/mL

###

Test: Approximate solubility of Form A in solvents at room temperature
Format: physicochemical
Settings: organic solvent or mixture, thermodynamic from solid, IPAc
MEASUREMENT_LABEL: solubility

Look up solubility for this compound: C[C@@H](COCCC(=O)N1CCN(c2ncc(C(F)(F)F)cn2)CC1)Nc1cn[nH]c(=O)c1C(F)(F)F [Form A] < 1100 µg/mL

###

Assay: Approximate solubility of Form A in solvents at room temperature
Assay type: physicochemical
Conditions: organic solvent or mixture, thermodynamic from solid, Toluene
MEASUREMENT_LABEL: solubility

Look up solubility for this compound: C[C@@H](COCCC(=O)N1CCN(c2ncc(C(F)(F)F)cn2)CC1)Nc1cn[nH]c(=O)c1C(F)(F)F [Form A] < 1000 µg/mL

###

Experiment: Approximate solubility of Form A in solvents at room temperature
Format: physicochemical
Details: organic solvent or mixture, thermodynamic from solid, ACN/THF (1:9) v:v
MEASUREMENT_LABEL: solubility

Recorded solubility of C[C@@H](COCCC(=O)N1CCN(c2ncc(C(F)(F)F)cn2)CC1)Nc1cn[nH]c(=O)c1C(F)(F)F [Form A] , please. 10 to 20 mg/mL

###

Experiment: Approximate solubility of Form A in solvents at room temperature
Type: physicochemical
Settings: organic solvent or mixture, thermodynamic from solid, ACN/MIBK (1:9) v:v
MEASUREMENT_LABEL: solubility

Entry under review: C[C@@H](COCCC(=O)N1CCN(c2ncc(C(F)(F)F)cn2)CC1)Nc1cn[nH]c(=O)c1C(F)(F)F [Form A] . Reported solubility? 2000 to 5000 µg/mL

###

Assay: Approximate solubility of Form A in solvents at room temperature
Format: physicochemical
Conditions: organic solvent or mixture, thermodynamic from solid, MIBK
MEASUREMENT_LABEL: solubility

What does the data say about its solubility? Entry: C[C@@H](COCCC(=O)N1CCN(c2ncc(C(F)(F)F)cn2)CC1)Nc1cn[nH]c(=O)c1C(F)(F)F [Form A] < 1000 µg/mL

###

Experiment: Approximate solubility of Form A in solvents at room temperature
Format: physicochemical
Details: organic solvent or mixture, thermodynamic from solid, DCM/MTBE (1:9) v:v
MEASUREMENT_LABEL: solubility

# query: solubility of entry C[C@@H](COCCC(=O)N1CCN(c2ncc(C(F)(F)F)cn2)CC1)Nc1cn[nH]c(=O)c1C(F)(F)F [Form A] < 1200 µg/mL

###

Test: Approximate solubility of Form A in solvents at room temperature
Assay type: physicochemical
Conditions: organic solvent or mixture, thermodynamic from solid, CHCl3
MEASUREMENT_LABEL: solubility

I have this molecule here, C[C@@H](COCCC(=O)N1CCN(c2ncc(C(F)(F)F)cn2)CC1)Nc1cn[nH]c(=O)c1C(F)(F)F [Form A] , and I need its recorded solubility. 22 to 44 mg/mL

###

Test: Approximate solubility of Form A in solvents at room temperature
Type: physicochemical
Conditions: organic solvent or mixture, thermodynamic from solid, MTBE
MEASUREMENT_LABEL: solubility

Would you mind telling me what solubility value was observed for C[C@@H](COCCC(=O)N1CCN(c2ncc(C(F)(F)F)cn2)CC1)Nc1cn[nH]c(=O)c1C(F)(F)F [Form A] ? < 1000 µg/mL

###

Assay: Approximate solubility of Form A in solvents at room temperature
Assay type: physicochemical
Details: organic solvent or mixture, thermodynamic from solid, DCM
MEASUREMENT_LABEL: solubility

Param item = C[C@@H](COCCC(=O)N1CCN(c2ncc(C(F)(F)F)cn2)CC1)Nc1cn[nH]c(=O)c1C(F)(F)F [Form A] ; retrieve measured solubility. 19 to 38 mg/mL

###

Experiment: Approximate solubility of Form A in solvents at room temperature
Assay type: physicochemical
Settings: organic solvent or mixture, thermodynamic from solid, DMAc
MEASUREMENT_LABEL: solubility

Quick one: solubility of C[C@@H](COCCC(=O)N1CCN(c2ncc(C(F)(F)F)cn2)CC1)Nc1cn[nH]c(=O)c1C(F)(F)F [Form A] ? 22 to 44 mg/mL
